Assayed system: T1, recombinant canine OX40L ECD-TNCc-HIS protein (canine)
T1 construct: also called Trimeric OX40L probe (HIS tag); trimeric canine OX40L
T1 chain: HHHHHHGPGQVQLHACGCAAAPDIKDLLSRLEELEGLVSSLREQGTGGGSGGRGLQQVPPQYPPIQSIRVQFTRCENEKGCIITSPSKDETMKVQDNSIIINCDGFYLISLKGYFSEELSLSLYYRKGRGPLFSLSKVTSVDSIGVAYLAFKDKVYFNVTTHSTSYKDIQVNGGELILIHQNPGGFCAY
Test protocol: SPR Koff (kd2)
Property name: koff (s⁻¹)

Binder	Property name	Measured result
PMX104 (antibody, V domains shown) VH: EVQLVESGGDLVRPGGSLRLSCVASGFTFSNYHMSWVRQAPGKGLQWVAFINSGGTSTTYADAVRGRFTTSRDYAKNTLYLQMNSLRAEDTAVYYCTSGSIWTHFDYWGQGTLVTVSS VL: SFVLTQLPSVSVTLRQTARITCGGDIIGSKSVYWFQQKLGQAPILIIYRDDNRPTGIPERFSGASSGNTATLIISGALAEDEAHYYCQVWDSSSKAMFGGGTHLTVL	koff	1.23
PMX294 (antibody, V domains shown) VH: EVQLVESGGDLVKPEGSLRLSCAVSGFTFSSNDMSWVRQAPGKGLQWVAYITYDGRSTSYTDIVKGRFTVSRDNAKNTLYLQMNSLRSEDAAVYYCAKAQRGWFFDYWGQGTLVTVSS VL: SYVLTQLPSVSVTLRQTARITCGGDSIGSKNVYWYQQKLGQAPVLIIYDDDSRPSGIPERISGANSGNTATLTISGALAEDEADYYCQVWDSSTGVFGGGTHLTVL	koff	2.69
PMX025 (antibody, V domains shown, also called PMX25) VH: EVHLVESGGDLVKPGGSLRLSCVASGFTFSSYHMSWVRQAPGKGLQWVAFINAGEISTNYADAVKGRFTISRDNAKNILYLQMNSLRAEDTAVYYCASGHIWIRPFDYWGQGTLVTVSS VL: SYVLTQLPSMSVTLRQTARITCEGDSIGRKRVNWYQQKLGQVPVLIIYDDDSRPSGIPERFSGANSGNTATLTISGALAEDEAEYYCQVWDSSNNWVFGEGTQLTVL	koff	0.00169
PMX026 (antibody, V domains shown, also called PMX26) VH: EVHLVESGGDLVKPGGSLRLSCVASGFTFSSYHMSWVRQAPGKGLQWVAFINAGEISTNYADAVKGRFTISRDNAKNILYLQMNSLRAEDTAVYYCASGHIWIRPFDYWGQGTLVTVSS VL: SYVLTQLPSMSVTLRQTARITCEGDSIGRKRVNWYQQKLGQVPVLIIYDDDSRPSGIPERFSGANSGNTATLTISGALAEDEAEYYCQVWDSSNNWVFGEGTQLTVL	koff	0.00131
PMX028 (antibody, V domains shown, also called PMX28) VH: EVQMVESGGDLVKPGGSLRLSCVASGFTFSDYHMSWVRQAPGKGLQWVAYITSGGSSTSYADAVKGRFTISRDNAKNTLYLQMNSLRAEDTAVYYCASDLVLVVGGGVYWGQGTLVTVSS VL: SYELTQPPSVNVTLRETAHITCGGDSIGSKYVQWIQQNPGQAPVVIIYKDSNRPTGIPERFSGANSGNTATLTISGALAEDEADYYCQVGDSGTKAVFGEGTQLTVL	koff	0.000627
